targetOrTestSystem: T1, cynomolgus (Macaca fascicularis) ST2L extracellular domain with C-terminal His6 tag (Macaca fascicularis (cynomolgus), UniProt Q01638 19-321 (human entry))
T1 construct: also called cyno ST2L-ECD; cynoST2L-ECD
T1 chain: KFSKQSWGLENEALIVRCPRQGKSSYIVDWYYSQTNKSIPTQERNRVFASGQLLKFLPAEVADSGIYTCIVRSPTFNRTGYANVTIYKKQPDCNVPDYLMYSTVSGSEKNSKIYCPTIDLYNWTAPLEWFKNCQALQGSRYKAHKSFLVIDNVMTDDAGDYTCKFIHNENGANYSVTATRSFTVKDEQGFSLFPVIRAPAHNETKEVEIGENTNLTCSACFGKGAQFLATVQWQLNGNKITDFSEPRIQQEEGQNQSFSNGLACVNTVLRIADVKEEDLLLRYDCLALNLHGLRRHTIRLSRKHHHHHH
procedureText: SPR, mAb captured, ST2L-ECD in solution
readoutKind: koff (s⁻¹)
Numbers only, in s⁻¹.

State recorded koff for all listed binders.
1. C2519 (antibody, V domains shown, Mouse hybridoma antibody; also called C2519A) VH: EFQLQQSGPELVKPGASVKISCKASGYSFTDYNMNWVKQSHGKSLEWIGNINPYYGSTTYNQKFKGKATLTVDKSSNTAYMHLNSLTSEDSAVYYCAREGDTYLAWFAYWGQGTLVTVSA VL: DVLMTQTPLSLPVSLGDQASISCRSSQSIVYSNGNTYLEWYLQKPGQSPKLLIYKVSNRFSGVPDRFSGSGSGTDFTLKISRVEAEDLGVYYCFQGSHVPPTFGGGTKLEIK
2. ST2M49 (antibody, V domains shown, Phage-derived Fab converted to IgG) VH: EVQLVQSGAEVKKPGESLKISCKGSGYSFTSYWIGWVRQMPGKGLEWMGIIYPGDSYTRYSPSFQGQVTISADKSISTAYLQWSSLKASDTAMYYCARIGGMFDYWGQGTLVTVSS VL: EIVLTQSPATLSLSPGERATLSCRASQSVANALAWYQQKPGQAPRLLIYKASNRATGIPARFSGSGSGTDFTLTISSLEPEDFAVYYCQQYYGWPITFGQGTKVEIK

1: 0.0032; 2: 0.0124
